Reported pIC50 values for the following compounds.
Target: human VR1 (Homo sapiens, UniProt Q8NER1)
Sequence (Q8NER1 whole entry): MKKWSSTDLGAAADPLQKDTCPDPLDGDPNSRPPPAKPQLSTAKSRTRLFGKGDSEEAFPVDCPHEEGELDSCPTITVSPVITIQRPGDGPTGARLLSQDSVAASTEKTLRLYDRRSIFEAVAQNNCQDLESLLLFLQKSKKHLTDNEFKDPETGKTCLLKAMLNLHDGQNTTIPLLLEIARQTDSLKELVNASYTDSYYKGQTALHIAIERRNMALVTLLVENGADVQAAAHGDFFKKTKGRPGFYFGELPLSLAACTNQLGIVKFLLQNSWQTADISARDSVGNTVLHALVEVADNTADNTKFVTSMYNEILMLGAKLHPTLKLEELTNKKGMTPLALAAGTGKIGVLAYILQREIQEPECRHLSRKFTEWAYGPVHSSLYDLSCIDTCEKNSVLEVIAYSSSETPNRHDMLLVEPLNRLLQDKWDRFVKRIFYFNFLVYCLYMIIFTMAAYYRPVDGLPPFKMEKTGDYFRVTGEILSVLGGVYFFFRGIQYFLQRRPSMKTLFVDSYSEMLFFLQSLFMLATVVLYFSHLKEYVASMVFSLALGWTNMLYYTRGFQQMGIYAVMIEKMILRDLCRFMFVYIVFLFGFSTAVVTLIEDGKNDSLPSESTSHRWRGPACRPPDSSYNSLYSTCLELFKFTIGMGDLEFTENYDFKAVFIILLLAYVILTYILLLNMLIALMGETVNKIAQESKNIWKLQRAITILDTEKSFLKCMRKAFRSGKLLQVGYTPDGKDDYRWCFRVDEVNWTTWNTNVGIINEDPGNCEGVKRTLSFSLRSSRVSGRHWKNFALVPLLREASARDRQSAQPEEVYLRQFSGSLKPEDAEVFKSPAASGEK
Assay: Inhibition of Ca2+ entry in cells caused by proton, in rat glioma (C6BU1) cells stably expressing human VR1 (Fura 2 fluorescence)
Details: inhibition of proton-induced Ca2+ entry
pIC50: −log10 of the molar value.

Need pIC50 of CC(O)c1cnc(N2CCOc3c(C(=O)Nc4ccc(OC(F)(F)F)cc4)cccc32)c(Cl)c1 (single isomer, unassigned; (-)) [Example 2-15] , thanks.
> 7.00

# iterate: CCOc1ccc(N2CCOc3c(C(=O)Nc4ccc(C(F)(F)F)cc4)cccc32)nc1 [Example 1-144]
> 7.00

# iterate: CC(C)(C)c1ccc(NC(=O)c2cccc3c2OCCN3c2ccc(N)cn2)cc1 [Example 1-141]
> 7.00

# iterate: O=C(Nc1ccc(N2CCCCC2)c(F)c1)c1cccc2c1OC[C@H](CO)N2c1ncccc1Cl [Example 4-10]
> 7.00
